// reported GI50 for each item listed
tested on: HCT-15; assay: Cytotoxicity against human HCT15 cells after 48 hrs by sulforhodamine B assay; assay type: functional; conditions: HCT-15, 48 h

Record excerpt, results attached:
INSERT INTO results (compound, experimental_readout, meas_value) VALUES
  ('COC1=C(Br)C[C@@]2(OC=C1Br)ON=C(C(=O)NCCCOc1c(Br)cc(CCNC=C3C(=O)C=CC3=O)cc1Br)[C@H]2O', 'GI50', '7.4 µM'),
  ('COC1=C(Br)C[C@]2(OC=C1Br)ON=C(C(=O)NCCCOc1c(Br)cc(C(O)CN/C=C3/C(=O)CC(Cl)C3=O)cc1Br)[C@@H]2O (mixture of isomers) [19-HYDROXYPSAMMAPLYSINE X]', 'GI50', '3.5 µM'),
  ('COc1cccc2c1C(=O)c1c(O)c3c(c(O)c1C2=O)C[C@@](O)(C(=O)CO)C[C@@H]3O[C@H]1C[C@H](N)[C@H](O)[C@H](C)O1 [DOXORUBICIN]', 'GI50', '1.4 µM');

Okay, now this compound:
stdin: Entry under review: NCCCOc1c(Br)cc(C(O)CN)cc1Br (centres undefined) [HYDROXYMOLOKA'IAMINE] . Reported GI50?
stdout: > 70 µM
